Cited source: patent US20080311126A1

- Test system: PC-3 prostrate cell adenocarcinoma
- Experiment Description: Relative colony forming efficiency (Example 17, Table 13)
- Assay type: cell-based, human
- Condition Summary: averages of 2-8 determinations
- Method: Colony forming efficiency was determined using standard protocols. […] The test oligonucleotides were added to cell cultures in the presence of 2.5 μg of DOTMA/DOPE (Lipofectin; Life Technologies, Inc.) for four hours. The oligonucleotide was tested at 0.2 μM unless otherwise indicated. […] Surviving cells were visualized by methylene blue staining, and colonies were scored. In some experiments cell aliquots were removed from the culture and viability was determined using the trypan blue exclusion test. […]
Oligonucleotides are written 5' to 3', each unit as a sugar letter and its base; * is a phosphorothioate linkage, no mark a phosphodiester; rarer units and linkages stand in square brackets, end groups in braces. Plain capitals give the bases only. d = 2'-deoxy (DNA)
Readout Kind: Reduced relative colony forming efficiency, PC-3 (% inhibition of colony forming ability)

Worked examples follow.
Substance | Endpoint Result
TTAGAAGTCAGCATCCAAGG (antisense dT*dT*dA*dG*dA*dA*dG*dT*dC*dA*dG*dC*dA*dT*dC*dC*dA*dA*dG*dG) [AS-II-1345-20] | 89.58%
ACCCTTCCCATTGGCTGCGC (antisense dA*dC*dC*dC*dT*dT*dC*dC*dC*dA*dT*dT*dG*dG*dC*dT*dG*dC*dG*dC) [AS-II-6-20] | 59.21%
AS-II-114420 (antisense dG*dT*dA*dT*dT*dG*dC*dT*dT*dC*dA*dT*dT*dA*dG*dA*dG*dT*dG*dC) | 30.21%
CAAATGGGTTCTCTACTCTG (antisense dC*dA*dA*dA*dT*dG*dG*dG*dT*dT*dC*dT*dC*dT*dA*dC*dT*dC*dT*dG) [AS-II-1217-20] | 81.03%
ACTGCCATTGTCACTGCTAT (antisense dA*dC*dT*dG*dC*dC*dA*dT*dT*dG*dT*dC*dA*dC*dT*dG*dC*dT*dA*dT) [AS-II-1581-20] | 85.83%

Attention now shifts to the item below.
INPUT: Find the recorded Reduced relative colony forming efficiency, PC-3 (% inhibition of colony forming ability) belonging to CCCAGTTCCAGCATAAGTCT (antisense dC*dC*dC*dA*dG*dT*dT*dC*dC*dA*dG*dC*dA*dT*dA*dA*dG*dT*dC*dT) [AS-II-1182-20] and report it.
OUTPUT: 92.76%
